Data origin: patent US4761415A

Test: inhibition of cytochrome P450-dependent mixed function oxidase catalyzed deethylation of ethoxycoumarin
Format: in vitro ADME
Details: read-out: P-450 IC50
Procedure: The compounds listed in Table I also were evaluated for their ability to inhibit cytochrome P450-dependent mixed function oxidase catalyzed deethylation of ethoxycoumarin by the procedure of […] and Poland, J. Pharmacol. Exp. Ther., 205, 596-605 (1978).
Where a name gives a salt, the structure may show the parent alone.
recorded_metric: IC50
Give the figure together with its unit, number first.

* CN1CCN(Cc2nnc(S)n2Cc2ccccc2)CC1 [hydrochloride] | 700 µM
* CN1CCN(Cc2nnc(S)n2Cc2cccc(F)c2)CC1 | 375 µM
* Fc1cc(F)cc(Cn2ccnc2S)c1 [reference compound] | 12 µM

Next up:
Lab book: IC50 of CN1CCN(Cc2nnc(S)n2Cc2cc(F)cc(F)c2)CC1 noted as 350 µM

###

Task for the reader: assign each of the following compounds its reported IC50.
Sequence of the target: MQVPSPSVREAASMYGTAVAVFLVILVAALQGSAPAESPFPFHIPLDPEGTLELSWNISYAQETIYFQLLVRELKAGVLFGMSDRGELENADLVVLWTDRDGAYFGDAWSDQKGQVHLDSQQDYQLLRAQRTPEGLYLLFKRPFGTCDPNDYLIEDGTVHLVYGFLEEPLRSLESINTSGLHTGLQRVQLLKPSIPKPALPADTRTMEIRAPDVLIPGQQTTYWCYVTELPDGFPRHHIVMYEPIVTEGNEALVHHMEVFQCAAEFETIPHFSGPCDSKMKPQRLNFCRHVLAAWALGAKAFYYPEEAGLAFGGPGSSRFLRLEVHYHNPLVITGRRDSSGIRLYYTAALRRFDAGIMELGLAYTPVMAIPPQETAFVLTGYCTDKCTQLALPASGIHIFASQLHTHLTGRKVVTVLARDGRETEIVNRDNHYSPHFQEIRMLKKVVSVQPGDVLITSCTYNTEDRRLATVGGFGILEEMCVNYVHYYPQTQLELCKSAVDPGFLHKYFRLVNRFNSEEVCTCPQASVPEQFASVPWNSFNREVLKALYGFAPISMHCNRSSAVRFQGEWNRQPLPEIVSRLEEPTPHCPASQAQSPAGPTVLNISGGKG
Where a name gives a salt, the structure may show the parent alone.
One number for each entry, in µM.

Observe how each entry below is paired with its result.
- CN1CCN(Cc2nnc(S)n2Cc2cccc(F)c2)CC1: 60
- CN1CCN(Cc2nnc(S)n2Cc2ccccc2)CC1 [hydrochloride]: 90

Now, please, on to the next compound.
IC50 in this record for Fc1cc(F)cc(Cn2ccnc2S)c1 [reference compound] : 1.2
